# System: iBMDM (immortalised mouse bone-marrow-derived macrophages), LPS-stimulated
# test: mitochondrial superoxide (MitoSOX fluorescence) fold increase over unstimulated control; higher = more LPS-induced mitochondrial ROS (less inhibition)
# measurementSetup: inhibitor concentration: 500 nM; LPS: 100 ng/ml; time after LPS: 4 h
Consider the following compounds; for each one, report its mitochondrial superoxide.
Give bare numbers.

>  <mol>
O=C1Nc2ccc(I)cc2C1=Cc1cc(Br)c(O)c(Br)c1

>  <readoutValue>
1.09

$$$$
>  <mol>
Oc1ccc(Nc2nc(-c3ccc(Cl)cc3)cs2)cc1

>  <readoutValue>
1.71

$$$$
>  <mol>
Nc1nccc(Oc2ccc(NC(=O)c3c[nH]cc(-c4ccc(F)cc4)c3=O)cc2F)c1Cl

>  <readoutValue>
1.37

$$$$
>  <mol>
Cc1cc(Nc2cc(CN3CCOCC3)c3nc(C)c(Cc4ccc(Cl)cc4F)n3n2)n[nH]1

>  <readoutValue>
1.38

$$$$
>  <mol>
CC(C)N(CCC(=O)c1ccc2ccccc2c1)Cc1ccccc1

>  <readoutValue>
1.69

$$$$

Below are 2 compounds. Give each one its mitochondrial superoxide.
1. Cn1cnc(-c2cc3nccc(Oc4ccc(NC(=S)NC(=O)Cc5ccccc5)cc4F)c3s2)c1
2. CCN1CCN(Cc2ccc(Nc3ncc(F)c(-c4cc(F)c5nc(C)n(C(C)C)c5c4)n3)nc2)CC1

Result:
1.26
1.36

###

# System: iBMDM (immortalised mouse bone-marrow-derived macrophages), LPS-stimulated
# test: mitochondrial superoxide (MitoSOX fluorescence) fold increase over unstimulated control; higher = more LPS-induced mitochondrial ROS (less inhibition)
# measurementSetup: inhibitor concentration: 500 nM; LPS: 100 ng/ml; time after LPS: 1 h
valueKind: mitochondrial superoxide
Answers are plain numbers.

Reference set (6 entries):
>  <compound>
O=C1NC(=O)/C(=C/c2ccc(-c3ccc(F)cc3O)o2)S1

>  <mitochondrial superoxide>
1.4

$$$$
>  <compound>
COc1ccc(C(=O)Nc2sc3c(c2C(N)=O)CCCC3)cc1OC

>  <mitochondrial superoxide>
1.42

$$$$
>  <compound>
C=CC(=O)Nc1cccc(Oc2nc(Nc3ccc(N4CCN(C)CC4)cc3OC)ncc2Cl)c1

>  <mitochondrial superoxide>
1.42

$$$$
>  <compound>
CNC(=O)c1cc(COc2nnc(Nc3ccc(Cl)cc3)c3ccoc23)ccn1 [Telatinib]

>  <mitochondrial superoxide>
1.23

$$$$
>  <compound>
C#Cc1cccc(Nc2ncnc3cc4c(cc23)OCCOCCOCCO4)c1 [Icotinib]

>  <mitochondrial superoxide>
1.16

$$$$
>  <compound>
C#Cc1cccc(Nc2ncnc3cc(OC)c(OCCCCCCC(=O)NO)cc23)c1

>  <mitochondrial superoxide>
1.19

$$$$

Below are 6 compounds. Give each one its mitochondrial superoxide.
1. Cc1ccc(-n2nc(C(C)(C)C)cc2NC(=O)Nc2ccc(OCCN3CCOCC3)c3ccccc23)cc1 [BIRB 796 (Doramapimod)]
2. Clc1ccc(C2(c3ccc(-c4cn[nH]c4)cc3)CCNCC2)cc1
3. CO[C@H]1C[C@@H]2CC[C@@H](C)[C@@](O)(O2)C(=O)C(=O)N2CCCC[C@H]2C(=O)O[C@H]([C@H](C)C[C@@H]2CC[C@@H](OCCO)[C@H](OC)C2)CC(=O)[C@H](C)/C=C(\C)[C@@H](O)[C@@H](OC)C(=O)[C@H](C)C[C@H](C)/C=C/C=C/C=C/1C [Everolimus (RAD001)]
4. COc1cccc2cc(-c3nc([C@H]4CC[C@H](C(=O)O)CC4)n4ncnc(N)c34)[nH]c12
5. COc1cc(Nc2ncc(F)c(Nc3ccc4c(n3)NC(=O)C(C)(C)O4)n2)cc(OC)c1OC
6. Cn1cc(-c2ccc3ncc(Cc4ccc5ncccc5c4)n3n2)cn1

Result:
1. 0.987
2. 1.16
3. 1.37
4. 1.3
5. 1.1
6. 1.24

Below are 2 compounds. Give each one its mitochondrial superoxide.
1. Cn1cnc2c(F)c(Nc3ccc(Br)cc3Cl)c(C(=O)NOCCO)cc21 [Selumetinib (AZD6244)]
2. Cc1ccc(Nc2nccc(N(C)c3ccc4c(C)n(C)nc4c3)n2)cc1S(N)(=O)=O [Pazopanib]

Result:
[1.45, 1.19]

###

Consider the following compounds; for each one, report its mitochondrial superoxide.
# Tested on: iBMDM (immortalised mouse bone-marrow-derived macrophages), LPS-stimulated
# test: mitochondrial superoxide (MitoSOX fluorescence) fold increase over unstimulated control; higher = more LPS-induced mitochondrial ROS (less inhibition)
# measurementSetup: inhibitor concentration: 500 nM; LPS: 100 ng/ml; time after LPS: 4 h
One number for each entry.

>  <mol>
CCCS(=O)(=O)Nc1ccc(F)c(C(=O)c2c[nH]c3ncc(Cl)cc23)c1F

>  <mitochondrial superoxide>
1.34

$$$$
>  <mol>
Cc1cc(Nc2ncnc3ccc(-c4ccc(CNCCS(C)(=O)=O)o4)cc23)ccc1Oc1ccn2ncnc2c1

>  <mitochondrial superoxide>
1.57

$$$$
>  <mol>
CCn1c(-c2nonc2N)nc2c(C#CC(C)(C)O)ncc(OC[C@H]3CCCNC3)c21

>  <mitochondrial superoxide>
1.49

$$$$
>  <mol>
CN1CCN(CCOc2cc(OC3CCOCC3)c3c(Nc4c(Cl)ccc5c4OCO5)ncnc3c2)CC1

>  <mitochondrial superoxide>
1.85

$$$$
>  <mol>
COc1ccc2c(Oc3ccc(NC(=O)c4c(C)n(CC(C)(C)O)n(-c5ccccc5)c4=O)nc3)ccnc2c1

>  <mitochondrial superoxide>
1.39

$$$$

Below are 3 compounds. Give each one its mitochondrial superoxide.
1. CC[C@@H]1C(=O)N(C)c2cnc(Nc3ccc(C(=O)NC4CCN(C)CC4)cc3OC)nc2N1C1CCCC1
2. CCN1CCN(Cc2ccc(-c3cc4c(N[C@H](C)c5ccccc5)ncnc4[nH]3)cc2)CC1
3. CC(C)(C)c1cnc(CSc2cnc(NC(=O)C3CCNCC3)s2)o1

Result:
1.39
1.25
1.5

Below are 5 compounds. Give each one its mitochondrial superoxide.
1. COc1ccc2c(c1)c(C1=C(c3c[nH]c4ccccc34)C(=O)NC1=O)cn2CCCN(C)C
2. O=C1c2ccccc2-c2n[nH]c3cccc1c23
3. COc1cc2ncnc(Nc3ccc(O)c(Br)c3)c2cc1OC
4. CCc1cccc(CC)c1NC(=O)N1Cc2[nH]nc(NC(=O)c3ccc(N4CCN(C)CC4)cc3)c2C1
5. Cc1cn(-c2cc(NC(=O)c3ccc(C)c(Nc4nccc(-c5cccnc5)n4)c3)cc(C(F)(F)F)c2)cn1

Result:
1.36
1.3
1.07
1.34
1.65

Below are 2 compounds. Give each one its mitochondrial superoxide.
1. NC1(Cc2ccc(Cl)cc2)CCN(c2ncnc3[nH]ccc23)CC1
2. COc1cc(Nc2ncc(F)c(Nc3ccc4c(n3)NC(=O)C(C)(C)O4)n2)cc(OC)c1OC

Result:
1. 1.68
2. 1.28
